- experimental system: T1, Human Semaphorin3A-Fc (R&D Systems), TPP-13211 (human)
- T1 construct: R&D Systems 1250-S3; also called recombinant human Sema3A-Fc chimera
- T1 sequence (chain, as listed by the source limits assumed): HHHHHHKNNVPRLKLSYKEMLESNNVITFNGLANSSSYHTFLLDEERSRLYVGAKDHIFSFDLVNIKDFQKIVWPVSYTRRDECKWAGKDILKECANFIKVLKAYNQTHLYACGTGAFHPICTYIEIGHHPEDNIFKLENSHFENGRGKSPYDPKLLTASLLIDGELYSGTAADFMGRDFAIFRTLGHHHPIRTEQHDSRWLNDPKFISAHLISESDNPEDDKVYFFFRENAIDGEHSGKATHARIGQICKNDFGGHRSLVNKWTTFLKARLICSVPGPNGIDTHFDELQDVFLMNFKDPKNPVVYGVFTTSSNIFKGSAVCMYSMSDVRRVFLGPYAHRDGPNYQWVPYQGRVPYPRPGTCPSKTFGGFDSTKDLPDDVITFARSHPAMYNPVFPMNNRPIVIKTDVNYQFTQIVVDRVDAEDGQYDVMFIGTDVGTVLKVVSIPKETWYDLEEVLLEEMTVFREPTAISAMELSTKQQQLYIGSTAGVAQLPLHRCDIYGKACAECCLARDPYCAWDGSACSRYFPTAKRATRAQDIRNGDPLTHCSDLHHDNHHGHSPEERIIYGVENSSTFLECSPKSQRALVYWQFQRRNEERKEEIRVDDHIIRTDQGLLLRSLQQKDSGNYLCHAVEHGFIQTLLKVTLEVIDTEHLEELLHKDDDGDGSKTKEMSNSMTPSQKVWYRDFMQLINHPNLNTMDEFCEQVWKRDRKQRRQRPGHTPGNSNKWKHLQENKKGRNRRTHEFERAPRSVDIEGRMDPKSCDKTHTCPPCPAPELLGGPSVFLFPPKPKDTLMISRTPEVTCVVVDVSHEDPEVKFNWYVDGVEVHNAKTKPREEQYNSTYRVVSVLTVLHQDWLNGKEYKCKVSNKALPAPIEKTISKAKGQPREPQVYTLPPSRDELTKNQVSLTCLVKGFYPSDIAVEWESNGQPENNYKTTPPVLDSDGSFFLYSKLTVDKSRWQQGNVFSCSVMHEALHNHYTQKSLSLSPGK
- protocol details: ELISA, signal on TPP-13211 divided by signal on TPP-19068

{"columns": ["binder", "Ratio ELISA binding TPP-13211/TPP-19068"],
 "data": [
  ["TPP-30790 (antibody, human IgG1, kappa, V domains shown, prior art, WO 2020/225400; also called BI clone III; Böhringer (BI) Clone III) VH: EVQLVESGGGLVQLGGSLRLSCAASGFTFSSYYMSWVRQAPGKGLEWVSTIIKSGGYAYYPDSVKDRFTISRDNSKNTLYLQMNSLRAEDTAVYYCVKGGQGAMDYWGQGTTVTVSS VL: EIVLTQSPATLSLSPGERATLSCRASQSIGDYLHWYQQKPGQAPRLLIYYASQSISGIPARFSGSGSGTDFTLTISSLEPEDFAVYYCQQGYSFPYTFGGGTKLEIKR", 0.19],
  ["TPP-30791 (antibody, human IgG1, kappa, V domains shown, prior art, WO 2020/225400; also called BI clone IV; Böhringer (BI) Clone IV) VH: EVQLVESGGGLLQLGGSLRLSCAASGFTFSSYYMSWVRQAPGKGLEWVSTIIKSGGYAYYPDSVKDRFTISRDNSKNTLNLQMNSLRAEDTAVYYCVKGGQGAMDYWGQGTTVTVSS VL: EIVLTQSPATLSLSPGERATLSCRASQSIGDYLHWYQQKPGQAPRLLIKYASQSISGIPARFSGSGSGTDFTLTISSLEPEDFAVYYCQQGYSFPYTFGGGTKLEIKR", 0.21],
  ["TPP-30789 (antibody, human IgG1, kappa, V domains shown, prior art, WO 2020/225400; also called BI clone II; Böhringer (BI) Clone II) VH: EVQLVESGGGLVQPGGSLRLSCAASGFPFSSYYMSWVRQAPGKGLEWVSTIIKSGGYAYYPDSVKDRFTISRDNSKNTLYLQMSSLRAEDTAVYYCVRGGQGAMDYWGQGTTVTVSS VL: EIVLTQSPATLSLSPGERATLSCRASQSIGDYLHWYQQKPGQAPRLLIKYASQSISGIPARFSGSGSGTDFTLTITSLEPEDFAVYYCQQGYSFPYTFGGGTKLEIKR", 0.2],
  ["TPP-30788 (antibody, human IgG1, kappa, V domains shown, prior art, WO 2020/225400; also called BI clone I; Böhringer (BI) Clone I) VH: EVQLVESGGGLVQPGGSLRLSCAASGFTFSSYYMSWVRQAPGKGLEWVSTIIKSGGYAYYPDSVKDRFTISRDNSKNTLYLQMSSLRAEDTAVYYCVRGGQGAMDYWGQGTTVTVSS VL: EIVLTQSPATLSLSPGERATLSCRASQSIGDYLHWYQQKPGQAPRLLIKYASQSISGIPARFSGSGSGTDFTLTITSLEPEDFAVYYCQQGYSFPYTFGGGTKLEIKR", 0.19]
]}
